Procedure text: Intrinsic clearance in human liver microsomes
Format: ADME, Microsome
Quantity measured: CLint scaled (mL/min/kg)
Answers are plain numbers, in mL/min/kg.

Check out these entries, answers already filled in.
Cc1cccc(C)c1CNc1nc(N2CCNC2=O)cc2c(C)c(C)[nH]c12 : 1.3
Cc1cccc(C)c1CNc1nc(-n2ccccc2=O)cc2c(C)c(C)[nH]c12 : 2.7
Cc1cccc(C)c1CNc1nc(-n2ccccc2=O)cc2c(C)c(C)n(CCO)c12 : 12.1

Which CLint scaled reading was recorded for the compound Cc1cccc(C)c1CNc1nccc2c(C)c(C)[nH]c12 ?
5

###

Procedure text: Inhibition of H+/K+ ATPase at pH 7.4
Decide using pIC50: a value greater than or equal to 7 is label 1, a smaller one is label 0.

Cc1cccc(C)c1CNc1nc(N2CCOCC2=O)cc2c(C)c(C)[nH]c12 : label 0
Cc1cccc(C)c1CNc1nc(N2CCCC2=O)cc2c(C)c(C)[nH]c12 : label 1
Cc1cccc(C)c1CNc1nc(-c2ccccc2)cc2c(C)c(C)[nH]c12 : label 0
Cc1cccc(C)c1CNc1nc(N2CCNC2=O)cc2c(C)c(C)[nH]c12 : label 0
Cc1cccc(C)c1CNc1cccn2c(C)nnc12 : label 0
Cc1cccc(C)c1CNc1nc(-n2ccccc2=O)cc2c(C)c(C)[nH]c12 : label 1
Cc1cccc(C)c1CNc1cccc2c1nc(C)n2C : label 0
Cc1cccc(C)c1CNc1nc(N2CCOCC2=O)cc2c(C)c(C)n(CCO)c12 : label 0

Please tell me: is the compound Cc1cccc(C)c1CNc1nc(-c2cccc(=O)[nH]2)cc2c(C)c(C)[nH]c12 at or over 7 in terms of pIC50?
label 0

Another compound: Cc1cccc(C)c1CNc1nccc2c(C)c[nH]c12
label 1

Another compound: Cc1cccc(C)c1CNc1ncnc2c(C)c(C)[nH]c12
label 0

Another compound: Cc1cccc(C)c1CNc1ncnc2c(C)csc12
label 0

###

Field: pKa. Provide a value for each of the compounds that follow.
Procedure text: Dissociation constant, pKa of the compound
Format: physicochemical
Applied conditions: read-out: pKa

Check out these entries, answers already filled in.
Cc1cccc(C)c1CNc1nccc2c1nc(C)n2C : 7.49
Cc1cccc(C)c1CNc1nc(N2CCCC2=O)cc2c(C)c(C)[nH]c12 : 6.32
Cc1cccc(C)c1CNc1nccn2c(C)c(C)cc12 : 7.92
Cc1cccc(C)c1CNc1nc(-n2ccccc2=O)cc2c(C)c(C)[nH]c12 : 4.71
Cc1cccc(C)c1CNc1ccnc2c1cc(C)n2C : 7.42

Need pKa for each of these compounds.
1. Cc1cccc(C)c1CNc1nccc2c1cc(C)n2C
2. Cc1cccc(C)c1CNc1nc(-n2ccccc2=O)cc2c(C)c(C)n(CCO)c12

1: 9.14; 2: 4.5

###

Assayed target: UniProt:P08684
Sequence (P08684 whole entry): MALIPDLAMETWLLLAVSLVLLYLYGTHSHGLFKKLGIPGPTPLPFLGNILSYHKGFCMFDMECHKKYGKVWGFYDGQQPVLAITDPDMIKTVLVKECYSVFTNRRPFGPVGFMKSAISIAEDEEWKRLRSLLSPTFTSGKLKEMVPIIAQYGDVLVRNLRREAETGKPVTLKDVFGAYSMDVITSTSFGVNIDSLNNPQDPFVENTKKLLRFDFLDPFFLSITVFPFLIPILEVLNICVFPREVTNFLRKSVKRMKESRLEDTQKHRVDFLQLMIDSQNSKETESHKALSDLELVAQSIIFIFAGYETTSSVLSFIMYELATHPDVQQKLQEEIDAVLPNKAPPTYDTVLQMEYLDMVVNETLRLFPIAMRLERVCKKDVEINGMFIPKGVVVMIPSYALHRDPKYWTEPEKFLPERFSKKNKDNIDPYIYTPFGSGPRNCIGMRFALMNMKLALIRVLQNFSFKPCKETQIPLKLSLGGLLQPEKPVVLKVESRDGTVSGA
Procedure text: Inhibition of CYP3A4 using diethoxyfluorescein substrate
Assay type: ADME
Quantity measured: pIC50
One number for each entry, as −log10 of the molar value.

Cc1cccc(C)c1CNc1nccc2c1cc(C)n2C : 5.51
Cc1cccc(C)c1CNc1nccn2c(C)c(C)cc12 : 5.33
Cc1nc2c(OCc3ccccc3)cccn2c1CC#N : 5.05
Cc1cccc(C)c1CNc1nc(-n2ccccc2=O)cc2c(C)c(C)n(CCO)c12 : 5.25
Cc1cccc(C)c1CNc1ncnc2c(C)c(C)[nH]c12 : 5.06

Need pIC50 for each of these molecules.
1. Cc1cccc(C)c1CNc1nccc2c1nc(C)n2C
2. Cc1cccc(C)c1CNc1nc(-c2ccccc2)cc2c(C)c(C)[nH]c12
3. Cc1cccc(C)c1CNc1nc(N2CCNC2=O)cc2c(C)c(C)[nH]c12
4. Cc1cccc(C)c1CNc1nc(N2CCOCC2=O)cc2c(C)c(C)n(CCO)c12
5. Cc1cccc(C)c1CNc1nccc2c(C)c(C)[nH]c12
6. C=CCn1c(C)c(C)c2cc(-n3ccccc3=O)nc(NCc3c(C)cccc3C)c21

4.92
5.11
5.80
5.22
5.05
5.62

Need pIC50 for each of these molecules.
1. Cc1cccc(C)c1CNc1nc(-n2ccccc2=O)cc2c(C)c(C)[nH]c12
2. Cc1cccc(C)c1CNc1nc(N2CCCC2=O)cc2c(C)c(C)[nH]c12
3. CCn1c(C)c(C)c2cc(-n3ccccc3=O)nc(NCc3c(C)cccc3C)c21
4. Cc1cccc(C)c1COc1cccn2c(C)c(C)nc12
5. Cc1cccc(C)c1CNc1cccc2c1nc(C)n2C
6. Cc1cccc(C)c1CNc1nc(-c2cccc(=O)[nH]2)cc2c(C)c(C)[nH]c12

5.52
6.00
5.54
5.26
4.89
5.89

Need pIC50 for each of these molecules.
1. Cc1c(C)n(C[C@H]2C[C@@H]2C)c2c(OCc3ccc(F)cc3)nncc12
2. Cc1cccc(C)c1CNc1nc(N2CCOCC2=O)cc2c(C)c(C)[nH]c12

1: 5.22; 2: 4.66
